# PROTOCOL_DESCRIPTION: Rat PK IV/PO crossover study
# Format: in vivo
# CONDITION_NOTES: male, Sprague-Dawley, rat, plasma, iv, 1 mg/kg

[
  {
    "CHEMICAL_SMILES": "O=C(N[C@H]1CCCC[C@@H]1O)[C@H]1CN(Cc2ccc(-n3cccn3)cc2)c2ccccc2O1",
    "clearance [mL/min/kg]": 89
  }
]

* * *

# TESTED_ON: rat M1 (Rattus norvegicus, UniProt P08482)
# Sequence (P08482 whole entry): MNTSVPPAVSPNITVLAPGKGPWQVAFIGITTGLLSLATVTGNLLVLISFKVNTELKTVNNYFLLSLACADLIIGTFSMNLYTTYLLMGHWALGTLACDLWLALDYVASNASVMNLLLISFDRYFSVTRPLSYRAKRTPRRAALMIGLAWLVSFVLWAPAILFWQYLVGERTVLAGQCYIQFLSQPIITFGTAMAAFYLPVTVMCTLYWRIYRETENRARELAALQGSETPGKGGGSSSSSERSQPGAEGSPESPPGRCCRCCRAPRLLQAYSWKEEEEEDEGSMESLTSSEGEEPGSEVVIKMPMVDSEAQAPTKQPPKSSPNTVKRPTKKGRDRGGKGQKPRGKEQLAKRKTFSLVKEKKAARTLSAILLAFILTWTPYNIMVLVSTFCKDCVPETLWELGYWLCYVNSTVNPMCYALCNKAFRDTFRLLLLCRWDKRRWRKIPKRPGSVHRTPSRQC
# PROTOCOL_DESCRIPTION: Calcium mobilization assay, rat M1 cell line
# Type: cell-based
# CONDITION_NOTES: M1 agonist activity pEC50, rat M1 cell line, compound alone

[
  {
    "CHEMICAL_SMILES": "O=C(N[C@H]1CCCC[C@@H]1O)[C@H]1CN(Cc2ccc(-n3cccn3)cc2)c2ccccc2O1",
    "TESTED_ON": "rat M1 (Rattus norvegicus, UniProt P08482)",
    "UNIT_LABEL": "µM",
    "EC50": 5.37
  }
]
